This collection of values is drawn from patent US20220143196A1.

- target.under.test: T1, human melanocortin 1 receptor (MC1R) (human, UniProt Q01726 1-317)
- T1 construct: whole, on cells; also called MC1 receptor
- assay.details: competitive binding vs 125I-NDP-α-MSH on whole HEK293 cells overexpressing human MC1R
recorded.metric: Ki (nM)
Give bare numbers, in nM.

Query string: Please look up its Ki: CXLDHFRWK (not fully specified; Cys 1 thiol joined by a disulfide to a 2-thioethyl carbonate linker carrying camptothecin; 6-aminohexanoic acid (6-Ahx) at 2; Nle at 3; D-Phe at 6; lactam cyclization between Asp 4 and Lys 9 side chains; C-terminal amide; no N-terminal acetyl on Nle (replaced by the Cys-6-Ahx spacer), also called CPT-MT-II (1); camptothecin-MT-II (1)) [camptothecin (CPT)-MT-II conjugate (1)]
Result string: 57

***
Query string: Endpoint output: Ki of CXLDHFRWK (not fully specified; Cys 1 thiol joined by a disulfide to a 2-thioethyl carbonate linker carrying fluorescein; 6-aminohexanoic acid (6-Ahx) at 2; Nle at 3; D-Phe at 6; lactam cyclization between Asp 4 and Lys 9 side chains; C-terminal amide; no N-terminal acetyl on Nle (replaced by the Cys-6-Ahx spacer), also called fluorescein-MT-II (2); compound 2) [fluorescein-MT-II conjugate (2)] . Value?
Result string: 172
